# growth inhibition per entry
# ASSAY_REMARKS: NCI Yeast Anticancer Drug Screen. Data for the mlh1 rad18 strain (AID 175)
# CONDITION: S. cerevisiae mlh1 rad18 strain growth inhibition, stronger effect = higher value; at 50.0 µM unless noted
The panel holds about 79,000 compounds, 15% with a hit somewhere; the sample as a whole holds those more often.

MOLECULE: O=C(O)[C@H](Cc1ccccc1)N1C(=O)N[C@@H](Cc2ccccc2)C1=O
growth inhibition [%]: -2.7
--
MOLECULE: Cc1ccc([N+](=O)[O-])cc1NC(=O)Sc1ccc(C(C)(C)C)cc1C
growth inhibition [%]: 8.8
--
MOLECULE: NNc1nc(NCc2ccco2)c2[nH]cnc2n1
growth inhibition [%]: 12.8
--
MOLECULE: CCOC(=O)/C(=C\c1ccccc1)c1ccccc1
growth inhibition [%]: -6.8
--
MOLECULE: COC1CCC(/C=C(\C#N)C2CCC(C)CC2)CC1 (stereo unspecified)
growth inhibition [%]: 30.6
--
MOLECULE: O=C(NC1(Sc2ccccc2)CC1)c1ccc(Cl)cc1
growth inhibition [%]: 18.9

* * *

# ASSAY_REMARKS: NCI Yeast Anticancer Drug Screen. Data for the mec2-1 strain (AID 157)
# CONDITION: S. cerevisiae mec2-1 strain, stronger effect = higher value; at 50.0 µM unless noted
Compounds without any hit were thinned out: in the full panel of roughly 79,000, 15% have a hit.
Measured growth inhibition of individual entries

COMPOUND: CCOC(=O)/C(C#N)=C/c1ccc(C)cc1
UNIT_INFO: %
growth inhibition: 15.8
--
COMPOUND: O=C(O)c1cc(Cl)c2ccccc2c1O
UNIT_INFO: %
growth inhibition: 45.8
--
COMPOUND: CC(=O)OC1OC(COC(c2ccccc2)(c2ccccc2)c2ccccc2)C(OC(C)=O)C(OC(C)=O)C1OC(C)=O (stereo unspecified)
UNIT_INFO: %
growth inhibition: -8.6
--
COMPOUND: O=c1/c(=C/c2ccccc2[N+](=O)[O-])sc2nc3ccccc3n12
UNIT_INFO: %
growth inhibition: -21.4
--
COMPOUND: CCCCCCC1OC(C)C(C)O1 (stereo unspecified)
UNIT_INFO: %
growth inhibition: 13.7
--
COMPOUND: CCNC(=O)Nc1cccc(C)n1
UNIT_INFO: %
growth inhibition: 14.1
--
COMPOUND: CCOC(OCC)C1(C)CC=CCC1 (stereo unspecified)
UNIT_INFO: %
growth inhibition: 11.3
--
COMPOUND: CN(C)CCCC(=O)O
UNIT_INFO: %
growth inhibition: -45.4
--
COMPOUND: O=C(O)CNOCN1C(=O)c2ccccc2C1=O
UNIT_INFO: %
growth inhibition: -1.25
--
COMPOUND: CCOC(=O)c1ccc(-c2ccc(Cl)cc2)[nH]1
UNIT_INFO: %
growth inhibition: 0
--
COMPOUND: Cc1ccccc1C(=O)c1cccc2cccc(C(=O)c3ccccc3C)c12
UNIT_INFO: %
growth inhibition: 0.75

* * *

As shown below, each of these compounds has a reported growth inhibition value.
# ASSAY_REMARKS: NCI Yeast Anticancer Drug Screen. Data for the sgs1 mgt1 strain (AID 161);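 further: 0% = growth of cultures given vehicle only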
# CONDITION: S. cerevisiae sgs1 mgt1 strain, stronger effect = higher value; at 50.0 µM unless noted
About 79,000 compounds went through this panel and 15% of them were active in at least one assay; those are over-represented in the sample as a whole.

COMPOUND: CC(C)NC(=O)OCc1c(COC(=O)NC(C)C)c2n(c1Br)CCC2
growth inhibition (%): -9.6

COMPOUND: O=C1CN(C2OC(CO)C(O)C2O)C(=O)NC1=O (centres undefined)
growth inhibition (%): 55.2

COMPOUND: [N-]=[N+]=Nc1c(C=O)c(=O)n2c3c(cccc13)CCC2
growth inhibition (%): 29.2

COMPOUND: Cc1cc(=O)oc2c(C)c(OCCCOc3ccc4c(C)cc(=O)oc4c3C)ccc12
growth inhibition (%): -6.1

COMPOUND: COc1ccc(C2(OC)Oc3cc(OC)ccc3-c3nc4ccccc4nc32)cc1 (centres undefined)
growth inhibition (%): -4.15

COMPOUND: O=[N+]([O-])c1ccc[nH]c1=S
growth inhibition (%): -20.4

COMPOUND: CN(C)Cc1ccccc1
growth inhibition (%): 14.8

COMPOUND: COC(=O)c1ccccc1OC
growth inhibition (%): -2.2

COMPOUND: COc1ccc(C)cc1S(=O)(=O)c1ccc(Cl)cc1[N+](=O)[O-]
growth inhibition (%): 2

COMPOUND: CC1(C)CC([NH-])(C(=O)O)CC(C)(C)N1O.CC1(C)CC([NH-])(C(=O)O)CC(C)(C)N1O.[Zn+2]
growth inhibition (%): -2.25

COMPOUND: CCOC(=O)c1ccc(N/C(C)=C/C(=O)OC)cc1
growth inhibition (%): 11.2

COMPOUND: CC1=C(C(=O)Nc2ccccc2)C(c2ccc3c(c2)OCO3)C(C(=O)Nc2ccccc2)=C(C)N1
growth inhibition (%): 10.5

COMPOUND: COC1=NS(=O)(=O)C2CCCCCCC2O1 (centres undefined)
growth inhibition (%): 1.15

COMPOUND: CCOC(=O)N1CCc2cc(OC)c(OC)cc2C1Cc1ccc(OC)c(OC)c1 (centres undefined)
growth inhibition (%): -7.7

COMPOUND: N#Cc1ccc(Nc2cnc3cc(N)ccc3n2)cc1
growth inhibition (%): 13.6

COMPOUND: O=C(O)CCC1NCCCO1 (centres undefined)
growth inhibition (%): 3.7

COMPOUND: O=c1c(O)c(-c2cc(O)c(O)c(O)c2)oc2cc(O)cc(O)c12
growth inhibition (%): 7.55

COMPOUND: CCC(=O)c1cccc2cccc(C(c3ccccc3)c3ccccc3)c12
growth inhibition (%): 6.35

COMPOUND: CC12CCC([C@H](C(O)C3CCCCC3)C1=O)C2(C)C (some centres undefined)
growth inhibition (%): -12.8

COMPOUND: CCCCCCCCCCCCCCCCCCCCCCCCCCO
growth inhibition (%): -13.8

COMPOUND: Nc1nc(Cl)cc(NCCCCCCCCNc2cc(Cl)nc(N)n2)n1
growth inhibition (%): -7.35

COMPOUND: COc1cc2ccc(Cc3nccc4cc(OC)c(OC)cc34)cc2cc1OC
growth inhibition (%): 99

COMPOUND: Cc1ccc2c(c1)C(C(=O)N[C@@H]1C(=O)N3[C@@H]1SC(C)(C)[C@@H]3C(=O)O)OCCC2 (some centres undefined)
growth inhibition (%): 16.2

COMPOUND: NC(CSCCB(O)O)C(=O)O (centres undefined)
growth inhibition (%): -6.5

COMPOUND: [O-][N+](CCO)(CCO)c1ncnc2nc[nH]c12
growth inhibition (%): -0.45

COMPOUND: Cc1cc([N+](=O)[O-])cc(Br)c1N
growth inhibition (%): -1.6

COMPOUND: OC1COC(CCl)OC1C1OC(CCl)OCC1O (centres undefined)
growth inhibition (%): 17.9

COMPOUND: N=c1oc2ccc(Cl)cc2cc1C(=O)Nc1ccccc1
growth inhibition (%): -10.6

COMPOUND: CCOC(=O)c1ccc(NC(=S)Nc2ncccc2C)cc1
growth inhibition (%): 42.5

COMPOUND: CCN(CC)C(=O)c1cc(OC)c(C(=O)N(CC)CC)cc1OC
growth inhibition (%): 4.15

COMPOUND: CC(=O)OC1CCC2(C)C(C1)C(=O)OC1C2CCC2(C)C(C(C)CCCC(C)C)CCC12 (centres undefined)
growth inhibition (%): 2.75

COMPOUND: CCCCCCCCCCCC[N+](C)(C)C(C)Cc1ccccc1 (centres undefined)
growth inhibition (%): 89.8

COMPOUND: O=C1Oc2ccccc2C(=O)/C1=C/N1C(=O)N/C(=C\c2cccc(O)c2)C1=O
growth inhibition (%): 37.6

COMPOUND: COc1cccc2c1C(=O)c1c(O)c3c(c(O)c1C2=O)C[C@@](O)(C(=O)CO)CC3OC1CC(O)C(O)C(C)O1 (some centres undefined)
growth inhibition (%): 33.2

COMPOUND: C/C(N=NC(=S)N1CC2CCC(CC2)C1)=C1\C=CC=CN1O
growth inhibition (%): 82.2

COMPOUND: CCCCC(CC)OC(=O)c1ccccc1C (centres undefined)
growth inhibition (%): 0.5

COMPOUND: O=C(OC1C2C=COC(OC3OC(CO)C(O)C(O)C3O)C2C2(CO)OC12)c1ccc(O)cc1 (centres undefined)
growth inhibition (%): 17.8

COMPOUND: COc1ccc(CCNC(=O)[C@H]2CCCC[C@@H]2CCO)cc1OC
growth inhibition (%): -46.9

COMPOUND: CCOC(=O)/C(C#N)=C/c1cccc([N+](=O)[O-])c1
growth inhibition (%): 7.05
